# Test system: PBMC
# PROTOCOL SUMMARY: Antiinflammatory activity in human PBMC assessed as inhibition of LPS-induced TNFalpha production after 20 hrs by fluorescence linked immunosorbant assay
# Assay type: functional, cell-based
Threshold 0.08 nM: IC50 strictly smaller gives YES, otherwise NO.

COc1cccc(Nc2c(C(N)=O)cnc3c(C)cc(S(=O)(=O)c4cccc(C(=O)N(C)C)c4)cc23)c1 [GSK-256066] : YES

Is IC50 of Cc1cc(C(=O)N[C@H]2CC[C@@H](NC(=O)c3cc(F)cnc3Oc3cccc(-c4ccc(O)cc4CN4CCOCC4)c3)CC2)nn1C strictly below 0.08 nM?
YES

Could you please tell me whether IC50 recorded for Cc1cc(C(=O)N[C@H]2CC[C@@H](NC(=O)c3cc(F)cnc3Oc3cccc(-c4ccc(CCN5CCC(N6CCCC6)CC5)cc4)c3)CC2)nn1C is less than 0.08 nM?
YES

Does Cc1cccc2nc(C(=O)N[C@H]3CC[C@@H](NC(=O)c4cc(F)cnc4Oc4cccc(-c5ccc(CN6C[C@@H](C)N[C@@H](C)C6)cc5)c4)CC3)cn12 have IC50 strictly under 0.08 nM?
NO

For this compound, is IC50 lower than 0.08 nM? Cc1cc(C(=O)N[C@H]2CC[C@@H](NC(=O)c3cc(F)cnc3Oc3cccc(-c4ccc(CCCN5C[C@@H](C)N[C@@H](C)C5)cc4)c3)CC2)nn1C
YES

Item Cc1cc(C(=O)N[C@H]2CC[C@@H](NC(=O)c3cc(F)cnc3Oc3cccc(-c4cccc(CN5C[C@@H](C)N[C@@H](C)C5)c4O)c3)CC2)nn1C : IC50 beneath 0.08 nM, strictly?
NO

Does Cc1cc(C(=O)N[C@H]2CC[C@@H](NC(=O)c3cc(F)cnc3Oc3cccc(-c4ccc(O)c(CN5C[C@@H](C)N[C@@H](C)C5)c4)c3)CC2)nn1C have IC50 strictly under 0.08 nM?
YES

Find out if reported IC50 for Cc1cc(C(=O)N[C@H]2CC[C@@H](NC(=O)c3cc(F)cnc3Oc3cccc(-c4cc(O)cc(CN5C[C@@H](C)N[C@@H](C)C5)c4)c3)CC2)nn1C is less than 0.08 nM
NO
